biological target: CYP199A4 (Rhodopseudomonas palustris); experiment: UV-Vis titration, Soret spin-state shift
pKd: −log10 of the molar value.
PROPERTY_LABEL: pKd

COMPOUND: CCSc1ccc(C(=O)O)cc1 [4‐ethylthiobenzoic acid]
OBS_VALUE: 6.00

COMPOUND: CSc1ccc(C(=O)O)cc1 [4‐methylthiobenzoic acid]
OBS_VALUE: 5.64

====

target: CYP199A4 (Rhodopseudomonas palustris, UniProt Q2IU02, D252N); test: UV-Vis titration, Soret spin-state shift

MOLECULE: CSc1ccc(C(=O)O)cc1 [4‐methylthiobenzoic acid]
Kd [nM]: 830
